Where these numbers come from: patent US20150299188A1

Tested on: FLAP (5-lipoxygenase activating protein)
TEST PROTOCOL: In vitro binding test: displacement of [3H]-7-chloro-3-(5-((3-fluoropyridin-2-yl)methoxy)-2-methylphenyl)-3,4-dihydroquinazolin-2(1H)-one from Sf9 microsome fractions
Set-up: species or system human and mouse
TEST CONDITIONS: Sf9 microsome fractions expressing FLAP; 100% = radioligand binding with 10 μM sodium 3-(3-(tert-butylsulfanyl)-1-(4-chlorobenzyl)-5-isopropyl-1H-indol-2-yl)-2,2-dimethylpropanoate, 0% = DMSO; test compound concentration not given
READOUT TYPE: inhibitory rate (%)

Recorded inhibitory rate (%), per entry:
Cc1ncc(Cl)c2c1NC(=O)N(c1cc3c(cc1Cl)CCC(c1ncccc1F)O3)C2 (centres unmarked) [Example 7] ... 98
O=c1[nH]c2ccccc2c(=O)n1-c1cc(OCc2ncccc2F)ccc1F [Example 345] ... 114

I. O=C1Nc2cc(=O)[nH]c(C3CC3)c2CN1c1cc2c(cc1Cl)CCC(c1ncccc1F)O2 (centres unmarked) [Example 17]
II. Cc1nc(COc2ccc(C)c(N3Cc4ccc(C(C)(C)O)cc4NC3=O)c2)cs1 [Example 226]
**Q:** Form field 'greater inhibitory rate (%)' accepts I or II ; which applies? Mark your selection by writing its label.
**A:** I
